Taken from patent US20240150797A1.

Specific activity, Hesperetin chalcone reference
Experiment: Specific activity of purified CHI, absorbance decrease at 384 nm, hesperetin chalcone; also: unit not given here
Assay type: biochemical
Settings: purified CHI in 50 mM PBS, 100 μM substrate, 25° C.
Output: the number by itself.

These solved cases illustrate the format of a correct answer.
INSERT INTO results (molecule, observable, measurement) VALUES
  ('CHIera Mut6: Chalcone isomerase variant 6 from Eubacterium ramulus, genetically engineered (protein, listed as Eubacterium ramulus) MADFKFEPMRSLIYVDCVSEDYRPKLQRWIYKVHIPDSISNFEPYVTKYAFYPSFPIPPQGDRFGYARMQLTEHHWLVSELDPRLEIRAIAETFPMDVLVWQGQIPAAAHTDAQIDSDGDAGDAARKSNNAEGNPFIFAFLPMWWEKDLKGKGRTIEDGANYRFNMTIGFPEGVDKAEGEKWLFEKVVPILQAAPECTRVLASAVKKDINGCVMDWVLEIWFENQSGWYKVMVDDMKALEKPSWAQQDAFPFLKPYHNVCSAAVADYTPSNNLANYRGYITMR', 'Specific activity, Hesperetin chalcone', 30.3),
  ('CHI10: Chalcone isomerase from Clostridium sp. SY8519, access no. WP_013977558.1 (protein, Clostridium sp. SY8519) ADFEFNPMRSLIYIDCVKNDYRHKLQYWLYKHHIPDSIAKFEPYVSKYAFYSALPVPEDGEEFGTYNYQLTEHYWLCNPLTADFAVNSLQESFTPDVLKWQGIIPDIDITPEMMAAMQNADDARASEGSEAPGFDLPPFIFAFLPLSWEFQTKGEKLTIEDGPNYRWQFLVKYPEAADAEQADKWLMEEVIPAFAQMDEVKRILSSKVKQEVNGCVYYRVVEMWFDSPSDWHRAVKEKTGAISKPEWASTDSFPYLRPKHEMASIFLSDIPTTDNLLQYRGFIPMR', 'Specific activity, Hesperetin chalcone', 1.2),
  ('CHIera Mut14: Chalcone isomerase variant 14 from Eubacterium ramulus, genetically engineered (protein, listed as Eubacterium ramulus) MADFKFEPMRSLIYVDCVSEDYRPKLQRWIYKVHIPDSISKFEPYVTKYAFYPSFPIPPQGDRFGYARMQLTEHHWLVSELDPRLEINAIAETFPMDVLVWQGQIPAAAHTDAQIDSDGDAHRAARKSNNAEGNPFIFAFLPMWWEKDLKGKGRTIEDGANYRFNMTIGFPEGVDKAEGEKWLFEKVVPILQAAPECTRVLASAVKKDINGCVMDWVLEIWFENQSGWYKVMVDDMKALEKPSWAQQDAFPFLKPYHNVCSAAVADYTPSNNLANYRGYITMR', 'Specific activity, Hesperetin chalcone', 4.5),
  ('CHI6: Chalcone isomerase from Lachnoclostridium sp., access no. HCD45524.1 (protein, listed as Lachnoclostridium sp.) GTEFDPMRSFIYVDVIKEEYRHKLQHWLYFHHIPESISQFEPYCTKYAFYNALPVPEGGERFGTARMQITEHSWLVNIMDPALKVKAFQEYMPIEALKWQGTVPETAGDVLMSGDDARCTGGNNGCMPFVFAFCPMWWEEDVKGAGRTLTEGANYRWNFALTYPEGISKEEGDKWLFEEVFPYFEANNCCTRILTSKVRQEINGCPMYRVVEMWFTGPTAWHHLAVETADKIKSPSWAKDGDVFPYLKSGFEIRGAFVTDYPTCDAYSQYRGYIPRR', 'Specific activity, Hesperetin chalcone', 3.3),
  ('CHI15: Chalcone isomerase from Clostridioides difficile, access no. WP_095917646.1 (protein, Clostridioides difficile) ADFEFKIMRSLIYVGLAKEEYRPKLMDWLYRHHIPDSISTFGPYCTKYAFYQAYPTPNEGERFGARKMQLTEHYWLVDEHMPEMANRIMTEYMPMDVLRWQGCIPDVENKRVHENVESGDAGRAVGGDNGCPPFIFAFVPINWEEDFRGKGRTVQDGPNYRWQFMIKYPDGISKEEGEKWFYDEVVPYFTNCCYVNRFVSSKIMINYGATAFDRVSELWFEGEEEWYKAVVEETKSFIKKPEWAQEEEFPYLKPQFNIASVFLGDIATMDAYSQYRGYIPMR', 'Specific activity, Hesperetin chalcone', 1.3),
  ('CHIera Mut9: Chalcone isomerase variant 9 from Eubacterium ramulus, genetically engineered (protein, listed as Eubacterium ramulus) MADFKFEPMRSLIYVDCVSEDYRPKLQRWIYKVHIPDSISQFEPYVTKYAFYPSFPIPPQGDRFGYARMQLTEHHWLVSMLDPRLEIKAIAETFPMDVLVWQGQIPAAAHTDAQIDSDGDAGNAARKSNNAEGNPFIFAFLPMWWEKDLKGKGRTIEDGANYRFNMTIGFPEGVDKAEGEKWLFEKVVPILQAAPECTRVLASAVKKDINGCVMDWVLEIWFENQSGWYKVMVDDMKALEKPSWAQQDAFPFLKPYHNVCSAAVADYTPSNNLANYRGYITMR', 'Specific activity, Hesperetin chalcone', 57.4);

## Input Endpoint output: Specific activity, Hesperetin chalcone of CHIera Mut3: Chalcone isomerase variant 3 from Eubacterium ramulus, genetically engineered (protein, listed as Eubacterium ramulus) MADFKFEPMRSLIYVDCVSEDYRPKLQRWIYKVHIPDSISNFEPYVTKYAFYPSFPIPPQGDRFGYARMQLTEHHWLVSELDPRLEIKAIAETFPMDVLVWQGQIPAAAHTDAQIDSDGDAGRAAGKSNNAEGNPFIFAFLPMWWEKDLKGKGRTIEDGANYRFNMTIGFPEGVDKAEGEKWLFEKVVPILQAAPECTRVLASAVKKDINGCVMDWVLEIWFENQSGWYKVMVDDMKALEKPSWAQQDAFPFLKPYHNVCSAAVADYTPSNNLANYRGYITMR . Value?
## Output 55.1
